Test system: TREx-HeLa-Vpr
Test: Inhibition of -c-myc-His6 tagged HIV1 NL4-3 Vpr expressed in human TREx-HeLa-Vpr cells assessed as cell viability at 3.12 uM after 48 hrs in presence of tetracycline by WST8 assay
Format: cell-based
Details: Human immunodeficiency virus 1
Please respond with reported Activity for every item in the list.
One number for each entry, in %.

Use the examples below as a reference point.
CHEMICAL_SMILES	NUMERIC_VALUE
C=C[C@]1(C)C=C2[C@@H](O)[C@@H](O)[C@H]3C(C)(C)CCC[C@]3(C)[C@@]2(O)CC1	111
C=C[C@]1(C)C=C2C[C@@H](O)[C@H]3C(C)(C)CC[C@H](OC(C)=O)[C@]3(C)[C@H]2CC1	116
C=C[C@@]1(C)CCC2=C(C[C@@H](O)[C@H]3C(C)(C)CCC[C@]23C)[C@@H]1O	170
C=C[C@]1(C)C=C2[C@H](OC(C)=O)[C@@H](O)[C@H]3C(C)(C)CCC[C@]3(C)[C@H]2CC1	114
C=C[C@@]1(C)CCC2=C(CC[C@H]3C(C)(C)CCC[C@]23C)[C@H]1O	106
C=C[C@@]1(C)CCC2=C(C[C@@H](O)[C@H]3C(C)(C)CCC[C@]23C)C1=O	106

Then there is this compound:
For the compound `C=C[C@@]1(C)CCC2=C(C[C@@H](O)[C@H]3C(C)(C)CCC[C@]23C)[C@@H]1OC` , what Activity is on record?
119
